System: Acinetobacter baumannii
Experimental protocol: Antibacterial activity against Acinetobacter baumannii ATCC 19606 after 24 hrs by broth microdilution technique
Type: functional
Assay context: ATCC 19606, 24 h
Measurement kind: MIC (µg/mL)

Examples from the recorded data:
CCOC(=O)C1Sc2nnc(-c3ccc(S(=O)(=O)c4ccc(Cl)cc4)cc3)n2NC1=O (centres undefined)	1020
Nn1c(SCC(=O)Nc2ccccc2)nnc1-c1ccc(S(=O)(=O)c2ccc(Br)cc2)cc1	1020
CN(C)[C@@H]1C(O)=C(C(N)=O)C(=O)[C@@]2(O)C(O)=C3C(=O)c4c(O)cccc4[C@@](C)(O)[C@H]3C[C@@H]12	2
Nn1c(SCC(=O)O)nnc1-c1ccc(S(=O)(=O)c2ccc(Cl)cc2)cc1	1020

P = Nn1c(SCC(=O)O)nnc1-c1ccc(S(=O)(=O)c2ccccc2)cc1
Q = O=C1CSc2nnc(-c3ccc(S(=O)(=O)c4ccc(Br)cc4)cc3)n2N1
Just tell me: smaller MIC value, P or Q ? When you have decided, please share the label of that item. Q

A = Nn1c(SCC(=O)O)nnc1-c1ccc(S(=O)(=O)c2ccc(Br)cc2)cc1
B = O=C1CSc2nnc(-c3ccc(S(=O)(=O)c4ccccc4)cc3)n2N1
// pick min by MIC: A , B Use the label to indicate which entry you chose. B
(B: 256 µg/mL, A: 1020 µg/mL)

====

System: Pseudomonas aeruginosa
Experimental protocol: Antibacterial activity against Pseudomonas aeruginosa ATCC 9027 after 24 hrs by broth microdilution technique
Type: functional
Assay context: ATCC 9027, 24 h
Measurement kind: MIC (µg/mL)

Worked cases, MIC given:
Nn1c(SCC(=O)O)nnc1-c1ccc(S(=O)(=O)c2ccccc2)cc1	256
O=S(=O)(c1ccc(Br)cc1)c1ccc(-c2nnc3n2N=C(Nc2ccccc2)CS3)cc1	256
O=C1CSc2nnc(-c3ccc(S(=O)(=O)c4ccccc4)cc3)n2N1	128
O=S(=O)(c1ccc(Cl)cc1)c1ccc(-c2nnc3n2N=C(Nc2ccccc2)CS3)cc1	64
Nn1c(SCC(=O)O)nnc1-c1ccc(S(=O)(=O)c2ccc(Br)cc2)cc1	256

P = O=C1CSc2nnc(-c3ccc(S(=O)(=O)c4ccc(Br)cc4)cc3)n2N1
Q = Nn1c(S)nnc1-c1ccc(S(=O)(=O)c2ccc(Br)cc2)cc1
Hi there! Just curious which has the higher MIC between P and Q . Identify your pick by its label. Q
(Q: 512 µg/mL, P: 128 µg/mL)

====

Tested on: Citrobacter freundii
Experimental protocol: Antibacterial activity against Citrobacter freundii […] after 24 hrs by broth microdilution technique
Type: functional
Measurement kind: MIC (µg/mL)

Nn1c(SCC(=O)Nc2ccccc2)nnc1-c1ccc(S(=O)(=O)c2ccc(Cl)cc2)cc1	512

P = Nn1c(S)nnc1-c1ccc(S(=O)(=O)c2ccc(Br)cc2)cc1
Q = O=S(=O)(c1ccc(Cl)cc1)c1ccc(-c2nnc3n2N=C(Nc2ccccc2)CS3)cc1
R = Nn1c(SCC(=O)Nc2ccccc2)nnc1-c1ccc(S(=O)(=O)c2ccc(Br)cc2)cc1
S = CC1(C)S[C@@H]2[C@H](NC(=O)[C@H](N)c3ccccc3)C(=O)N2[C@H]1C(=O)O
Please put the entries in order of rising MIC. Output the labels ranked as instructed. S, Q, P, R

====

System: Acinetobacter baumannii
Experimental protocol: Antibacterial activity against Acinetobacter baumannii ATCC 19606 after 24 hrs by broth microdilution technique
Format: functional
Assay context: ATCC 19606, 24 h
Measurement kind: MIC (µg/mL)

Would you please look over these solved cases?
Nn1c(-c2ccc(S(=O)(=O)c3ccccc3)cc2)n[nH]c1=S	512
Nn1c(S)nnc1-c1ccc(S(=O)(=O)c2ccc(Br)cc2)cc1	128
O=S(=O)(c1ccc(Br)cc1)c1ccc(-c2nnc3n2N=C(Nc2ccccc2)CS3)cc1	512

a = O=S(=O)(c1ccc(Cl)cc1)c1ccc(-c2nnc3n2N=C(Nc2ccccc2)CS3)cc1
b = Nn1c(-c2ccc(S(=O)(=O)c3ccc(Cl)cc3)cc2)n[nH]c1=S
c = O=C1CSc2nnc(-c3ccc(S(=O)(=O)c4ccc(Cl)cc4)cc3)n2N1
d = O=c1[nH]n2c(-c3ccc(S(=O)(=O)c4ccc(Br)cc4)cc3)nnc2sc1=O
Ordering criterion: MIC; begin with the maximum. Give the order by naming the labels one after another as requested. d, a, c, b
(d: 1020 µg/mL, a: 512 µg/mL, c: 256 µg/mL, b: 128 µg/mL)
